Listing: activity coefficient of selected compounds
testSummary: activity coefficient (dimensionless); of the first substance listed, at infinite dilution; xn = mol fraction of the nth substance listed
experimentalSetup: 338.15 K; 101 kPa; Liquid; Chromatography; x1 = 0

CCCCCCC [heptane] + CCn1cc[n+](C)c1.CS(=O)(=O)[O-]	244
C=CCCCCCC [oct-1-ene] + CCn1cc[n+](C)c1.CS(=O)(=O)[O-]	187

input: Tell me the measured activity coefficient of CO [methanol] + CCn1cc[n+](C)c1.CS(=O)(=O)[O-] , please.
output: 0.229

input: Similarly, CCOCC [diethyl ether] + CCn1cc[n+](C)c1.CS(=O)(=O)[O-] ?
output: 16.8

input: Similarly, C=C(C)c1ccccc1 [(1-methylethenyl)benzene] + CCn1cc[n+](C)c1.CS(=O)(=O)[O-] ?
output: 11.2
